system tested: mu opioid receptor (CHO-hMOR cell membranes) (Homo sapiens)
Construct: purchased Receptor Biology, Inc. (Baltimore, Md.); host or cells: CHO cells (recombinant expression)
Sequence (P35372 whole entry): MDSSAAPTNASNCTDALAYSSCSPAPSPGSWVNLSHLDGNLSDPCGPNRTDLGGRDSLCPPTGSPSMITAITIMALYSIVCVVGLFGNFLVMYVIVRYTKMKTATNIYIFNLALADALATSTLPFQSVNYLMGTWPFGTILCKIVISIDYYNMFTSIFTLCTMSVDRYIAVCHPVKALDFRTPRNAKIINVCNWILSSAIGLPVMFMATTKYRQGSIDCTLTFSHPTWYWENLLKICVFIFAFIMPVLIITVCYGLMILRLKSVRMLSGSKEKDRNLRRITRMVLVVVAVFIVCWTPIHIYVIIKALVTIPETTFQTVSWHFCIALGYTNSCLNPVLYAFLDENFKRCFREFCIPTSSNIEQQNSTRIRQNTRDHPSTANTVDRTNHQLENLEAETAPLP
assay details: Mu Opioid Receptor Functional Assay: [35S]GTPγS Binding in CHO-hMOR Cell Membranes, Versions 1 and 2
Type: biochemical
experimental conditions: version 1, % inhibition of agonist-stimulated GTPγS binding
property name: MOR GTP binding assay_v1 (% I) (%)
Express it in %; write the number only.

Record "Cc1cc(O)cc(C)c1C[C@H](N)C(=O)N[C@@H](C)c1nc(-c2ccccc2)c[nH]1" . Reported MOR GTP binding assay_v1 (% I): 10.00

Record "Cc1cc(C(N)=O)cc(C)c1C[C@H](N)C(=O)N(C)[C@@H](C)c1nc(-c2ccccc2)c[nH]1" . Reported MOR GTP binding assay_v1 (% I): 1.00

Record "Cc1cc(O)cc(C)c1C[C@H](N)C(=O)N(Cc1nc(-c2ccc(Cl)cc2)c(C)[nH]1)C(C)C" . Reported MOR GTP binding assay_v1 (% I): 1.00

Record "CCNC(=O)c1cc(C)c(C[C@H](N)C(=O)N(C)[C@H](C)c2nc(-c3ccccc3)c[nH]2)c(C)c1" . Reported MOR GTP binding assay_v1 (% I): 6.00

Record "Cc1cc(O)cc(C)c1C[C@H](N)C(=O)N(Cc1nc(-c2ccccc2)c[nH]1)C(C)C" . Reported MOR GTP binding assay_v1 (% I): 1.00

Record "CC(C)N(C(=O)[C@@H](N)Cc1ccc(O)cc1)[C@@H](C)c1nc(-c2ccccc2)c[nH]1" . Reported MOR GTP binding assay_v1 (% I): 1.00

Record "Cc1cc(O)cc(C)c1C[C@H](N)C(=O)N(Cc1nc(-c2ccccc2)c[nH]1)C1CCCCC1" . Reported MOR GTP binding assay_v1 (% I): 70.00

Record "Cc1cc(O)cc(C)c1C[C@H](N)C(=O)N(Cc1nc(-c2cccc(CO)c2)c(C)[nH]1)C(C)C" . Reported MOR GTP binding assay_v1 (% I): 1.62
